I'd be grateful if you could share measured CC50 at 6 days for these entries.
Test description: cytotoxicity assay (percent viability of HEp-2 cells, Cell Titer-Glo)
Test settings: human, HEp-2 cells

COc1cc(-c2nnc(SCc3cc(Cl)cc(Cl)c3)o2)cc(OC)c1OC    > 25 µg/mL
CC(C)(C)C1CCc2nc3ccccc3c(C(=O)OCC(=O)Nc3ccc(C#N)cc3)c2C1 (centres unmarked)    > 50 µM
Cn1c(SCCc2ccccc2)nnc1-c1cccc([N+](=O)[O-])c1    > 25 µg/mL
Fc1cccc(COc2ccc(C(=S)N3CCOCC3)cc2)c1    > 25 µg/mL

Q: Reported CC50 at 6 days, molecule `C/C(N)=C(/C#N)C(=O)COC(=O)c1ccccc1SCC(=O)NC1CCCCCCC1` : ____
A: > 50 µM
